B1: CPEB3 Ribozyme (parent)
chain: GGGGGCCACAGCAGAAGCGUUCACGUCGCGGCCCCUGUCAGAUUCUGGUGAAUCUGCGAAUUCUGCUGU

Variants of: B1
Assay: self-cleavage, relative activity (ratio to wild type); higher = more cleavage; co-transcriptional
quantityName: self-cleavage
Keep the answer to the number alone.

C7U C45U    0.892
G1U U38G    0.0202
C39A A52G    0.833

Q) Consider the variant G11U U21A and give its measured self-cleavage.
A) 0.895

Q) State the recorded self-cleavage for this entry: C33U U53C
A) 0.861

Q) Which self-cleavage value belongs to C7G C54G ?
A) 0.17

Q) Item C32A U44A has what recorded self-cleavage?
A) 0.357

Q) # self-cleavage lookup, item U36A U53G
A) 0.286

Q) Dear colleague, I am looking for the recorded self-cleavage of the following variant: U44A C63A
A) 0.731

Q) Requested field: self-cleavage. Item: G2C A40G
A) 0.0911

Q) Reported self-cleavage for C33A G37U : what is it?
A) 0.12

Q) Which self-cleavage is listed for A15G U67C ?
A) 0.943

Q) Suppose we examine the variant G4C G37A ; what self-cleavage value has been reported?
A) 0.124

Q) # self-cleavage lookup, item G14U C34U
A) 0.833

Q) For the variant shown here, G5U A40C , give the reported self-cleavage.
A) 0.088

Q) Any idea what self-cleavage was measured for A60G C66A ?
A) 0.582

Q) // returns reported self-cleavage for input G41C U67A
A) 0.716

Q) Returns the measured self-cleavage for the input variant. Input: C39U A60U
A) 0.266

Q) Looking for the measured self-cleavage of C22A U38G , can you help?
A) 0.131

Q) Record request: self-cleavage value, item A23U C32G
A) 0.71

Q) Endpoint output: self-cleavage of G37C C63G . Value?
A) 0.25

Q) Look up self-cleavage: A42U G65C
A) 0.433

The reported measurements were obtained from the RNAGym collection of RNA variant scans (doi:10.7554/elife.80360).
